Test system Cytochrome P450 2C8 (Homo sapiens, UniProt P10632), pIC50 listed for each of the compounds.
// pIC50 here means minus log10 of the molar concentration (mol/L)

> print(dat)
                                   compound  measured.property  data.value
1  C[C@H](Oc1cc2cc(F)cc(F)c2nc1N)c1cc(C(=O)O)ccc1-n1cccn1              pIC50        4.76

Ask | Param readout= pIC50; system= Cytochrome P450 2C8 (Homo sapiens, UniProt P10632); entry= C[C@H](Oc1cc2cc(F)ccc2nc1N)c1[nH]c(=O)ccc1-n1cccn1 [PF-07059013] ; returns value.
Reply | 4.66
